These entries and their values trace back to the supplement of paper PMC9112550.

Measured shrunken log2 fold change accompanies every entry in the list below.
- Test system: Escherichia coli TOP10;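 also: peptides expressed intracellularly from a pBAD plasmid library in pooled LB shake-flask culture, induced with 0.3% L-arabinose, DNA abundance read by NGS, three biological replicates, DESeq2 with apeglm shrinkage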
- Protocol notes: shrunken log2 fold change of peptide-encoding DNA abundance (4.5 h post-induction vs induction); higher = less antimicrobial activity (less host growth inhibition)
- Experimental conditions: time post-induction: 4.5 h; library: site-saturation at positions 5, 18, 19, 20
Measurement type: shrunken log2 fold change

RRIRARPPRLPRPRPRPPYFPRP :: 0.314
RRIRARPPRLPRPRPRPLYSPRP :: -0.122
RRIRHRPPRLPRPRPRPQGVPRP :: -0.00445
RRIRVRPPRLPRPRPRPIYLPRP :: -0.543
RRIRKRPPRLPRPRPRPWITPRP :: -0.105
RRIRTRPPRLPRPRPRPVSCPRP :: -0.206
RRIRPRPPRLPRPRPRPCGWPRP :: 0.403
RRIRERPPRLPRPRPRPKCKPRP :: -0.173
RRIRSRPPRLPRPRPRPGESPRP :: 0.249
RRIRERPPRLPRPRPRPKRAPRP :: -0.145
RRIRQRPPRLPRPRPRPQSYPRP :: 0.015
RRIRTRPPRLPRPRPRPMYAPRP :: -0.121
RRIRWRPPRLPRPRPRPWYLPRP :: -0.193
RRIRRRPPRLPRPRPRPNQFPRP :: 0.119
RRIRGRPPRLPRPRPRPTGQPRP :: 0.793
